Sourced from patent US20080279864A1

Target: lam-pGBKT7 (lamin C attached to the GAL4 binding domain) (UniProt P04386 1-147; P02545 66-230)
Test: yeast two-hybrid control against lamin C, % of colonies surviving on high stringency plates, mean ± SEM
EXPERIMENTAL_READOUT: High Stringency (%)
Numbers only, in %.

Provide reported High Stringency (%) for each item, in the same order as listed.
1. GEFAKERERVENRRAFLKLRRQQQIERELNGYLEWIFKAEE (other, human, UniProt Q00975 357-397, looked up, not shown: large carriers, range 357-397; Yeast two-hybrid fusion; GAL4 domain placed first by the vector's design; Equating this segment with the 'N-terminal third' of the text is an inference; also called N-terminal third of the I-IIB loop; NH3-terminal third of the I-IIB loop) [I-IIB(357-397)-pGADT7]
2. DRFADLCAVGSPFARASLKSGKTESSSYFRRKEKMFRFFIRRMVKAQ (other, human, UniProt Q00975 436-482, looked up, not shown: large carriers, range 436-482; Yeast two-hybrid fusion; GAL4 domain placed first by the vector's design) [I-IIB(436-482)-pGADT7]
3. VMLAEEDRNAEEKSPLDVLKRAATKKSRNDLIHAEEGE (other, human, UniProt Q00975 398-435, looked up, not shown: large carriers, range 398-435; Yeast two-hybrid fusion; GAL4 domain placed first by the vector's design) [I-IIB(398-435)-pGADT7]
4. I-IIB(357-482)-pGADT7 (I-II loop of α1B fused to the GAL4 activation domain) (other, human, UniProt Q00975 357-482, looked up, not shown: large carriers, range 357-482; Yeast two-hybrid fusion; GAL4 domain placed first by the vector's design; also called I-IIB (pGADT7)) GEFAKERERVENRRAFLKLRRQQQIERELNGYLEWIFKAEEVMLAEEDRNAEEKSPLDVLKRAATKKSRNDLIHAEEGEDRFADLCAVGSPFARASLKSGKTESSSYFRRKEKMFRFFIRRMVKAQ

Reply:
[0, 0, 0.04, 0.74]
